target: NaV1.7 (Homo sapiens, UniProt Q15858); construct: expressed in transfected cells; host or cells: HEK293 (tetracycline-inducible); test: Automated patch clamp (Qube 384), internal block of NaV1.7; type: cell-based; conditions: IC50, compound in internal solution, HEK293 cells, read-out: Nav1.7 Intracellular Inhibition
Sequence (Q15858 whole entry): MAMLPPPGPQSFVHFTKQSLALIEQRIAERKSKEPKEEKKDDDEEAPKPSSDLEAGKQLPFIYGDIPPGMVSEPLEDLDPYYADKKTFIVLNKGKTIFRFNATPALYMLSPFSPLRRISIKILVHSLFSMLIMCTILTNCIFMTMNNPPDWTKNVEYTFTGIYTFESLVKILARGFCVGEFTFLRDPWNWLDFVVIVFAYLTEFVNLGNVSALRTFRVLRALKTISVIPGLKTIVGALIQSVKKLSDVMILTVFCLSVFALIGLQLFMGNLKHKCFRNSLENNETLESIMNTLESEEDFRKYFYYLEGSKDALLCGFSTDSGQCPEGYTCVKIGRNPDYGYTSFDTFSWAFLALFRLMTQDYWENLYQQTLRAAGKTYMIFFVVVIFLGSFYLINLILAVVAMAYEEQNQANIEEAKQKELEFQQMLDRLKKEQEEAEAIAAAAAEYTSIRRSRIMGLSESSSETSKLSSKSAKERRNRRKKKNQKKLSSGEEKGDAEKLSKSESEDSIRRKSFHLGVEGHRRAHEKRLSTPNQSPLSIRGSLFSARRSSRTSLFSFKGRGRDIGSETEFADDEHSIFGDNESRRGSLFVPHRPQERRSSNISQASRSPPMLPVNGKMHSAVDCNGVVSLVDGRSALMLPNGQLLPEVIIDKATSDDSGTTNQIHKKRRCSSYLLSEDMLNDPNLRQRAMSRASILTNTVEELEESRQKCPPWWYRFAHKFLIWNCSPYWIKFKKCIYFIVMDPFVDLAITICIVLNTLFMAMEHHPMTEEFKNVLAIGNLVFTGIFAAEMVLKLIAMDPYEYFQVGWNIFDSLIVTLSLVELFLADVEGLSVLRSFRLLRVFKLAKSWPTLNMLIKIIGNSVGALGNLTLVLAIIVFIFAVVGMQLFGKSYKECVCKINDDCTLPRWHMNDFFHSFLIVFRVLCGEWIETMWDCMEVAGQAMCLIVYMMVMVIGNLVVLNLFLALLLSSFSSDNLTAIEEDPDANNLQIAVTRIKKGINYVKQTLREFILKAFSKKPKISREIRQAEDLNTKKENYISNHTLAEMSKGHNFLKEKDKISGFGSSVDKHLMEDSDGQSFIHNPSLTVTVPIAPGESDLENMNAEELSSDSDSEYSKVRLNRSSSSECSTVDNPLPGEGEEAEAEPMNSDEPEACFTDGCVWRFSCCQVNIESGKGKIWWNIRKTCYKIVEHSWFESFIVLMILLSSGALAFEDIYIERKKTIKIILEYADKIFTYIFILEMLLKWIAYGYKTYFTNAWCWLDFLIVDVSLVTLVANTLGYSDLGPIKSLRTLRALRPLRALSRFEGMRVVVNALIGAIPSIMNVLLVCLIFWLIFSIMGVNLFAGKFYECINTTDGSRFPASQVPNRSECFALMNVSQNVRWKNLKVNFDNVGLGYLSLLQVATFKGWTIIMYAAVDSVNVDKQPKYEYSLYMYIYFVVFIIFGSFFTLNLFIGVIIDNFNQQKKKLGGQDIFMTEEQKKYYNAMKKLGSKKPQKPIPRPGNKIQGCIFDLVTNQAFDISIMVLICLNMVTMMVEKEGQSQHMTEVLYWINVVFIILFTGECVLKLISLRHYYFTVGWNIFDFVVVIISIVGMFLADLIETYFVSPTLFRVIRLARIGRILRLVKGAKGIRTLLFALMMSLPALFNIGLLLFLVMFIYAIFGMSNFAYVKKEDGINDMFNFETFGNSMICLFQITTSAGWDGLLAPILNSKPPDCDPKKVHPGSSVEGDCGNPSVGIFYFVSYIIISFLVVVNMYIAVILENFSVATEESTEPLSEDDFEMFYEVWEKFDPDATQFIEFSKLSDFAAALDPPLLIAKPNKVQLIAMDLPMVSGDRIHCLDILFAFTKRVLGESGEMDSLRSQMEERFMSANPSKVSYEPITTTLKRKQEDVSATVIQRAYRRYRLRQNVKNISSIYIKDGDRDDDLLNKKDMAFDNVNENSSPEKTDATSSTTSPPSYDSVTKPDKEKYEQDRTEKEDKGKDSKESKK
Measured IC50 of individual entries

Field: example entries. Status: answers known.
[[record]]
molecule = "Cc1cccc(C)c1NC(=O)C[N+]1(Cc2ccccc2)CCCC(F)(F)C1.[Br-] (centres unmarked) [Compound 32A]"
target = "NaV1.7 (Homo sapiens, UniProt Q15858)"
experimental_value = "300 to 1000 nM"

[[record]]
molecule = "COC(=O)c1ccccc1C[N+]1(CC(=O)Nc2c(C)cccc2C)CCCCC1.[Br-] [Compound 37A]"
target = "NaV1.7 (Homo sapiens, UniProt Q15858)"
experimental_value = "300 to 1000 nM"

[[record]]
molecule = "Cc1cccc(C(=O)N(C)C)c1NC(=O)C[N+]1(Cc2ccccc2)CCCCCC1.[Br-] [Compound 78A]"
target = "NaV1.7 (Homo sapiens, UniProt Q15858)"
experimental_value = "3000 to 10000 nM"

[[record]]
molecule = "CCOc1cccc(C)c1NC(=O)C[N+]1(Cc2ccccc2)CCCCCC1.[Br-] [Compound 77A]"
target = "NaV1.7 (Homo sapiens, UniProt Q15858)"
experimental_value = "300 to 1000 nM"

[[record]]
molecule = "Cc1cccc(C)c1NC(=O)C[N+]1(Cc2ccccc2)CCCC1"
target = "NaV1.7 (Homo sapiens, UniProt Q15858)"
experimental_value = "1000 to 3000 nM"


Task: So what IC50 did [2H]c1c([2H])c([2H])c(C[N+]2(CC(=O)Nc3c(C)cccc3C)CCCCCC2)c([2H])c1[2H].[Cl-] [Compound 33A] get with NaV1.7 (Homo sapiens, UniProt Q15858)?
Output: 300 to 1000 nM

Task: So what IC50 did Cc1cccc(C)c1NC(=O)C[N+]1(Cc2ccccc2)CCCCC1 get with NaV1.7 (Homo sapiens, UniProt Q15858)?
Output: 300 to 1000 nM

Task: So what IC50 did CCC(=O)OC1CCC[N+](CC(=O)Nc2c(C)cccc2C)(Cc2ccccc2)C1.[Br-] (centres unmarked) [Compound 52A] get with NaV1.7 (Homo sapiens, UniProt Q15858)?
Output: < 300 nM

Task: So what IC50 did CNC(=O)C1CCC[N+](CC(=O)Nc2c(C)cccc2C)(Cc2ccccc2)C1 (centres unmarked) [Compound 55A] get with NaV1.7 (Homo sapiens, UniProt Q15858)?
Output: 300 to 1000 nM

---

target: NaV1.7 (Homo sapiens, UniProt Q15858); construct: expressed in transfected cells; host or cells: HEK293 (tetracycline-inducible); assay: Manual patch clamp, internal block of NaV1.7 current; type: cell-based; conditions: % inhibition at 10 μM test concentration, compound in internal solution, HEK293 cells, read-out: Nav1.7 Intracellular Inhibition
Experimental endpoint: inhibition at 10 µM

Field: example entries. Status: answers known.
[[record]]
compound = "CCC(C(=O)Nc1c(C)cccc1C)[N+]1(Cc2cccc(O)c2)CCCCC1 (stereo not drawn) [Compound 29A]"
experimental_value = "70 to 95%"

[[record]]
compound = "CC[N+](CC)(CC(=O)Nc1c(C)cccc1C)Cc1ccccc1"
experimental_value = "70 to 95%"

[[record]]
compound = "CCC(C(=O)Nc1c(C)cccc1C)[N+]1(Cc2ccc(C#N)cc2)CCCCC1 (stereo not drawn) [Compound 13A]"
experimental_value = "70 to 95%"

[[record]]
compound = "CCC(C(=O)Nc1c(C)cccc1C)[N+]1(Cc2ccccc2)CCCCC1.[Br-] (stereo not drawn)"
experimental_value = "70 to 95%"


Task: So what inhibition at 10 µM did CCC(C(=O)Nc1c(C)cccc1C)[N+]1(Cc2ccc(OC)cc2)CCCCC1 (stereo not drawn) [Compound 22A] get with NaV1.7 (Homo sapiens, UniProt Q15858)?
Output: 70 to 95%

Task: So what inhibition at 10 µM did CCC(C(=O)Nc1c(C)cccc1C)[N+]1(Cc2ccc(F)cc2)CCCCC1 (stereo not drawn) get with NaV1.7 (Homo sapiens, UniProt Q15858)?
Output: 70 to 95%
